# assayed_system: C3b (human, UniProt P01024 23-667; P01024 749-1663)
# Sequence (P01024 23-667 limits assumed, chain 1 of 2): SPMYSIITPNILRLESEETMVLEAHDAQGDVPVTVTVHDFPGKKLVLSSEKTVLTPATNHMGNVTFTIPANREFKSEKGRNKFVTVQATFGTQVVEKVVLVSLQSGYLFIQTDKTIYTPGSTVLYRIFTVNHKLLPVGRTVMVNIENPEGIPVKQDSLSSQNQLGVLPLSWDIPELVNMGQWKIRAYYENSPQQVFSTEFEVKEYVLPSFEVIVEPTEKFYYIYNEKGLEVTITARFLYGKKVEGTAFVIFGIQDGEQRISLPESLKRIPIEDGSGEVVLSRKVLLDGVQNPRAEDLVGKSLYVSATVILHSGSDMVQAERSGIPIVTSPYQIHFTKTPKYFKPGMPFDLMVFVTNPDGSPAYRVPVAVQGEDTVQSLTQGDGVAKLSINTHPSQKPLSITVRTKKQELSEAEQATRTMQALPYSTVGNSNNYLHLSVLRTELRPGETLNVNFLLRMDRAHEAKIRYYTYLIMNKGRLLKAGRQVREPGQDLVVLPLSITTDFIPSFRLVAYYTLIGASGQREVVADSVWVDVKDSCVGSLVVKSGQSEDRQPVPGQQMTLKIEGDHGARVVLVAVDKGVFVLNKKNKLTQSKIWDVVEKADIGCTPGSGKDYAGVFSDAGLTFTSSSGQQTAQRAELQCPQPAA
# Sequence (P01024 749-1663 limits assumed, chain 2 of 2): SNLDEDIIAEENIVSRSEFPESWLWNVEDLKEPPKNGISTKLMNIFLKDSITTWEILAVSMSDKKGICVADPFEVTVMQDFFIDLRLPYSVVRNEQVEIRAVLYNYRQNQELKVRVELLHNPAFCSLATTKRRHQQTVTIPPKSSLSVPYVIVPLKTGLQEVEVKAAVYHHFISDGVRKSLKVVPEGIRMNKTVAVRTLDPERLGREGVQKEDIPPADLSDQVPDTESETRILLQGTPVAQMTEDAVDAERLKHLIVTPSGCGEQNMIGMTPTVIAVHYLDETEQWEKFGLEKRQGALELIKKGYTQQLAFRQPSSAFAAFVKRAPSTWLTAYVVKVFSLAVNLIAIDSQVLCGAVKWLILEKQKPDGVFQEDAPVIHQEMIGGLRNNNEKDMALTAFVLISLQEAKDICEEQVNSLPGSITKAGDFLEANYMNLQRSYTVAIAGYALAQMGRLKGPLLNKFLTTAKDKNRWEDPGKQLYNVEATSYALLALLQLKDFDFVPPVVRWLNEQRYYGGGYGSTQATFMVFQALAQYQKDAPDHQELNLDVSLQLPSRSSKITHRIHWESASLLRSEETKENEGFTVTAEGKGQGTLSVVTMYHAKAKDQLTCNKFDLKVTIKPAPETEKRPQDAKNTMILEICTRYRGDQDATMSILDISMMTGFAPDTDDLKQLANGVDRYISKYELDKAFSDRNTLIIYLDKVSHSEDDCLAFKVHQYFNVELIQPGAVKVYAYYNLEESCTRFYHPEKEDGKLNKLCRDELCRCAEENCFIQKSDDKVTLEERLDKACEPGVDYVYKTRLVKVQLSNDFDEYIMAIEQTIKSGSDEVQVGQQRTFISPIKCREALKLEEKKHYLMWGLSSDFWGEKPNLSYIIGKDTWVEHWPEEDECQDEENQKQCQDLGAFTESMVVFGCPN
# procedure_details: binding screen of Example 5; method and unit not stated
Recorded binding relative to negative control mIgG2 by entry
Please reply with the value in numeric form only.

Example results:
[[record]]
binder = "antibody 38F5 (antibody, V domains shown, Mouse hybridoma antibody) VH: EVMLVESGGALVKPGGSLKLSCTASGFTFSNYAMSWVRQTPEKRLEWVAQTISSGGRYTYYPDSVKGRFTISRDNARNTLYLQMSSLRSEDTAMYYCVRRYYGNSYWYFDVWGAGTTVTVSS VL: DIVMTQSPSSLSVSAGEKVTMNCKSSQSLLNSGNQKHYLTWYQQKPGQPPKLLIYGASTRGSGVPDRFTGSGSGTDFTLTISSVQAEDLAVYYCQNDHSYPYTFGGGTKLEIK"
measured_value = 0.66

[[record]]
binder = "antibody 62F2 (antibody, V domains shown, Mouse hybridoma antibody) VH: DVQLQESGPDLVKPSQSLSLTCTVTGYSITSGYSLHWIRQFPGNKLEWMGYIHYSGSTNYNPSLKSRISITRDTSKNQFFLKLNSVTSEDTATYHCARAWDYLDYWGQGTTLTVSS VL: DIQMTQSPASLSASVGETVTITCRASENIYSQLAWYQQKQGKSPQLLVYDAKTLAEGVPSRFSGSGSDTQFSLKIISLQPEDFGRYYCHHHFGILYTFGGGTKLEMK"
measured_value = 0.61


Asked: Given antibody 62B11 (antibody, V domains shown, Mouse hybridoma antibody) VH: EVKLVESGGGLVQPGGSLKLSCAASGFTFSSYTMSWVRQTPEKRLEWVAYISSGGGTTYYPDTVKGRFTVSRDNAKNTLYLQMSSLRSEDTAMYSCARRYYRGSSLWYFDVWGAGTTVTVSS VL: DIVMTQSPSSLTVTAGEKVTMSCKSSQSLFNSGSQKNFLTWYQQRPGQPPKLLIYWASTRESGVPDRFTGSGSGTDFTLTISSVQAEDLAVYYCQNDYSYPLTFGAGTKLELK , state its recorded binding relative to negative control mIgG2.
Given back: 0.76
